biological target: Indoleamine 2,3-Dioxygenase (IDO1) in SKOV-3 cells (Homo sapiens, UniProt P14902); construct: endogenous in cells; experiment: SKOV-3 cellular indoleamine 2,3-dioxygenase assay; settings: 50 ng/ml Interferon gamma, 100 μM L-Tryptophan, 24 hours, N-Formylkynurenin fluorescence, read-out: cell based activity (IC50)
Sequence (P14902 whole entry): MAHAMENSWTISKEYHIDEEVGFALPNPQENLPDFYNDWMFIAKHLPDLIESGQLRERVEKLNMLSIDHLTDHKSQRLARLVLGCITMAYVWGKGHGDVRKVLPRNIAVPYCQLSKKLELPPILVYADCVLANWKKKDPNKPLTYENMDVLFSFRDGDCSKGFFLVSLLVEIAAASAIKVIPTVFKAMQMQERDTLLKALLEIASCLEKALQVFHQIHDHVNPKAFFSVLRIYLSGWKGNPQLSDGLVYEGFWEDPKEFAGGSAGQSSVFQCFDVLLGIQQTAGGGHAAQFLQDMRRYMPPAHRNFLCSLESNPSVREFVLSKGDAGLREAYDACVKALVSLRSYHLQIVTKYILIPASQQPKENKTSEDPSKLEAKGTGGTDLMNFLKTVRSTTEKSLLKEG
pIC50: −log10 of the molar value.

[
  {
    "structureSmiles": "O=C(Nc1ccc(Cl)cn1)C(=O)N1CCC2(CC1)COc1ccccc12",
    "pIC50": "6.00 to 7.00"
  },
  {
    "structureSmiles": "O=C(Nc1ccc(Cl)cn1)C(=O)N1CCC2(CC1)OCc1ccncc12",
    "pIC50": "< 6.00"
  },
  {
    "structureSmiles": "O=C(NC1Cc2ccccc2C1)C(=O)N1CCC(c2ccnc3ccc(F)cc23)CC1",
    "pIC50": "6.00 to 7.00"
  },
  {
    "structureSmiles": "O=C(Nc1ccc(Cl)cc1F)C(=O)N1CCC(c2ccnc3ccnn23)CC1",
    "pIC50": "6.00 to 7.00"
  },
  {
    "structureSmiles": "O=C(Nc1ccc(Cl)cn1)C(=O)N1CCC(F)(c2ccnc3ccccc23)CC1",
    "pIC50": "6.00 to 7.00"
  }
]

* * *

target: Indoleamine 2,3-Dioxygenase (IDO1) in SKOV-3 cells (Homo sapiens); construct: endogenous in cells; test: SKOV-3 cellular indoleamine 2,3-dioxygenase assay; conditions: 50 ng/ml Interferon gamma, 100 μM L-Tryptophan, 24 hours, N-Formylkynurenin fluorescence, read-out: cell based activity (IC50)
pIC50: −log10 of the molar value.
# pIC50 per entry
reportedMetric: pIC50

[
  {
    "molecule": "O=C(Nc1ccc(Cl)cn1)C(=O)N1CCC(O)(c2ccnc3ccccc23)CC1 [1/9]",
    "result": "< 6.00"
  },
  {
    "molecule": "O=C(Nc1ccc(Cl)cn1)C(=O)N1CCC2(CC1)NC(=O)c1ccccc12 [100/6]",
    "result": "< 6.00"
  },
  {
    "molecule": "O=C(Nc1ccc(C(F)F)cc1)C(=O)N1CCC(c2ccnc3ccc(F)cc23)CC1 [1/22]",
    "result": "> 7.00"
  },
  {
    "molecule": "N#Cc1ccc2c(c1)COC21CCN(C(=O)C(=O)Nc2ccc(Cl)cc2)CC1 [100/14]",
    "result": "6.00 to 7.00"
  },
  {
    "molecule": "O=C(Nc1ccc(Cl)cn1)C(=O)N1CCC(c2ccnc(C(F)(F)F)c2Cl)CC1 [2/4]",
    "result": "6.00 to 7.00"
  },
  {
    "molecule": "O=C(Nc1ccc(-c2cncnc2)cn1)C(=O)N1CCC(c2ccnc3ccc(F)cc23)CC1 [5/5]",
    "result": "< 6.00"
  },
  {
    "molecule": "C[C@H]1CC[C@H](NC(=O)C(=O)N2CCC(c3ccnc4ccccc34)CC2)CC1 [Example 4]",
    "result": "6.00 to 7.00"
  },
  {
    "molecule": "O=C(Nc1ccc(Br)cc1)C(=O)N1CCC(c2ccnc3ccc(F)cc23)CC1 [1/27]",
    "result": "> 7.00"
  },
  {
    "molecule": "O=C(Nc1ccc(CC(F)(F)F)cc1)C(=O)N1CCC(c2ccnc3ccc(F)cc23)CC1 [1/36]",
    "result": "6.00 to 7.00"
  },
  {
    "molecule": "O=C(Nc1ccc(OC(F)F)cc1)C(=O)N1CCC(c2ccnc3ccc(F)cc23)CC1 [1/39]",
    "result": "> 7.00"
  },
  {
    "molecule": "CO[C@@H]1CN(C(=O)C(=O)Nc2ccc(Cl)cc2)CC[C@H]1c1ccnc2ccc(F)cc12 (single isomer, unassigned) [10/2a]",
    "result": "> 7.00"
  },
  {
    "molecule": "O=C(Nc1ccc(Cl)cc1)C(=O)N1CCC2(CC1)OCc1cc(Cl)ccc12 [100/9]",
    "result": "> 7.00"
  },
  {
    "molecule": "CC(C)(O)c1ccc2nccc(C3CCN(C(=O)C(=O)Nc4ccc(Cl)cc4)CC3)c2c1 [1/42]",
    "result": "< 6.00"
  },
  {
    "molecule": "O=C(Nc1csc(Cl)c1)C(=O)N1CCC(c2ccnc3ccc(F)cc23)CC1 [7/2]",
    "result": "> 7.00"
  },
  {
    "molecule": "O=C(Nc1ccc(Cl)cc1)C(=O)N1CCC2(CC1)OCc1cc(C(F)(F)F)c(F)cc12 [100/13]",
    "result": "> 7.00"
  },
  {
    "molecule": "O=C(Nc1ccc(C(F)(F)F)cc1)C(=O)N1CCC(c2ccnc3ccc(F)cc23)CC1 [7/1]",
    "result": "> 7.00"
  },
  {
    "molecule": "O=C(NC1CCC(F)(F)CC1)C(=O)N1CCC(c2ccnc3ccc(F)cc23)CC1 [8/3]",
    "result": "< 6.00"
  },
  {
    "molecule": "O=C(Nc1ccc(Br)cc1F)C(=O)N1CCC(c2ccnc3ccc(F)cc23)CC1 [1/26]",
    "result": "> 7.00"
  },
  {
    "molecule": "Cc1nc(NC(=O)C(=O)N2CCC(c3ccnc4ccc(F)cc34)CC2)ccc1Cl [5/3]",
    "result": "6.00 to 7.00"
  },
  {
    "molecule": "O=C(Nc1ccc(Cl)cc1)C(=O)N1CCC(c2ccnc3c(F)cc(F)cc23)CC1 [1/30]",
    "result": "> 7.00"
  },
  {
    "molecule": "O=C(Nc1ccc(C(F)(F)F)cn1)C(=O)N1CCC(c2ccncc2-c2ccccc2)CC1 [6/2]",
    "result": "< 6.00"
  },
  {
    "molecule": "O=C(N[C@H]1CCc2ccccc2C1)C(=O)N1CCC(c2ccnc3ccc(F)cc23)CC1 [Example 5]",
    "result": "6.00 to 7.00"
  },
  {
    "molecule": "O=C(Nc1ccc(Cl)cc1)C(=O)N1CCC2(CC1)COc1cc(C(F)F)ccc12 [Example 101]",
    "result": "> 7.00"
  },
  {
    "molecule": "O=C(NCc1ccc(Cl)cc1)C(=O)N1CCC(c2ccnc3ccc(F)cc23)CC1 [2/1]",
    "result": "< 6.00"
  },
  {
    "molecule": "O=C(Nc1ccc(Cl)cc1)C(=O)N1CCCC2(CC1)COc1cc(C(F)(F)F)ccc12 (centres unmarked) [Example 102]",
    "result": "6.00 to 7.00"
  },
  {
    "molecule": "O=C(Nc1ccc(Cl)c(F)c1)C(=O)N1CCC(c2ccnc3ccc(F)cc23)CC1 [1/18]",
    "result": "> 7.00"
  },
  {
    "molecule": "O=C(Nc1ccc(Cl)cc1F)C(=O)N1CCC(c2ccccc2)C1 (centres unmarked) [1/7]",
    "result": "< 6.00"
  },
  {
    "molecule": "N#Cc1ccc(C2CCN(C(=O)C(=O)Nc3ccc(Cl)cn3)CC2)c2ccccc12 [2/6]",
    "result": "6.00 to 7.00"
  },
  {
    "molecule": "N#Cc1ccc(NC(=O)C(=O)N2CCC(c3ccnc4ccc(F)cc34)CC2)cc1 [1/14]",
    "result": "> 7.00"
  },
  {
    "molecule": "O=C(Nc1ccc(Cl)cc1)C(=O)N1CCC(c2ccnc3ccccc23)CC1 [1/3]",
    "result": "> 7.00"
  },
  {
    "molecule": "O=C(Nc1ccc(Cl)cn1)C(=O)N1CCC(c2ccnc3ccccc23)CC1 [Example 3]",
    "result": "> 7.00"
  },
  {
    "molecule": "NC(=O)c1ccc2nccc(C3CCN(C(=O)C(=O)Nc4ccc(Cl)cc4)CC3)c2c1 [1/43]",
    "result": "< 6.00"
  },
  {
    "molecule": "O=C(Nc1ccc(Cl)cn1)C(=O)N1CCC2(CC1)OCc1ccccc12 [100/1]",
    "result": "6.00 to 7.00"
  },
  {
    "molecule": "O=C(Nc1ccc(Cl)cc1)C(=O)N1CCC(c2ccnc3ccc(Cl)cc23)CC1 [1/47]",
    "result": "> 7.00"
  },
  {
    "molecule": "CN1C(=O)C2(CCN(C(=O)C(=O)Nc3ccc(Cl)cn3)CC2)c2ccccc21 [100/4]",
    "result": "< 6.00"
  }
]
